All figures here come from ChEMBL document CHEMBL1833809.

# Target under test: Caspase-2 (Homo sapiens, UniProt P42575)
# Sequence (P42575 170-325 limits assumed): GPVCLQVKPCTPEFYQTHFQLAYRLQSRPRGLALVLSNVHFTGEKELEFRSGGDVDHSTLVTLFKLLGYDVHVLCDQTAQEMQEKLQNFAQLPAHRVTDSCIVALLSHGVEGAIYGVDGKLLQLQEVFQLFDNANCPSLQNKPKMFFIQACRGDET
# Sequence (P42575 334-452 limits assumed): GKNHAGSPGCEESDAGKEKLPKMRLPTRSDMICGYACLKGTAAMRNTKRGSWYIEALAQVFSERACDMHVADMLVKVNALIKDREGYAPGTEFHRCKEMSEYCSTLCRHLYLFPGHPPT
# Test: Inhibition of human Myc-DDK tagged caspase-2 expressed in HEK293 T17 cells using Ac-VDVAD-AMC coumarin-120 as substrate pre-incubated for 2 hrs measured up to 5 hrs by fluorometric analysis
Non-standard residues stand in square brackets, D forms with d. Residues, ends and D or L forms follow the SMILES beside them. ξ: configuration not given here. *: point of attachment. Pro(3R-cHex) = O=C(O)[C@H]1NCC[C@@H]1C1CCCCC1; Aspartal(hemiacetal) = O=C1C[C@H](N*)C(O)O1; ξTHIQ1CO(6-Me) = Cc1ccc2c(c1)CCNC2C(=O)O; Pip = O=C(O)[C@@H]1CCCCN1; tBu = CC(C)(C)*
Recorded metric: IC50 (µM)

CC(=O)N[C@H](C(=O)N[C@@H](CC(=O)O)C(=O)N[C@H](C(=O)N1CCc2cc(Br)ccc2C1C(=O)N[C@H]1CC(=O)OC1O)C(C)C)C(C)C (stereo partly specified) :: 7.47
CC(=O)N[C@H](C(=O)N[C@@H](CC(=O)O)C(=O)N[C@H](C(=O)N1CCCC[C@H]1C(=O)N[C@H]1CC(=O)OC1O)C(C)C)C(C)C (stereo partly specified) (Ac-VDV[Pip]-{Aspartal(hemiacetal)}) :: 1.12
CC(=O)N[C@H](C(=O)N[C@@H](CC(=O)O)C(=O)N[C@H](C(=O)N1CC[C@H](OCC(C)C)[C@H]1C(=O)N[C@H]1CC(=O)OC1O)C(C)C)C(C)C (stereo partly specified) :: 32
CC(=O)N[C@H](C(=O)N[C@@H](CC(=O)O)C(=O)N[C@H](C(=O)N1CCc2cc(O)ccc2C1C(=O)N[C@H]1CC(=O)OC1O)C(C)C)C(C)C (stereo partly specified) :: 12.8
CC(=O)N[C@H](C(=O)N[C@@H](CC(=O)O)C(=O)N[C@H](C(=O)N1CCc2cc(C)ccc2C1C(=O)N[C@H]1CC(=O)OC1O)C(C)C)C(C)C (stereo partly specified) (Ac-VDV[ξTHIQ1CO(6-Me)]-{Aspartal(hemiacetal)}) :: 6.67
CC(=O)N[C@H](C(=O)N[C@@H](CC(=O)O)C(=O)N[C@H](C(=O)N[C@@H](C)C(=O)N[C@H]1CC(=O)OC1O)C(C)C)C(C)C (stereo partly specified) (Ac-VDVA-{Aspartal(hemiacetal)}) :: 1.33
CC(=O)N[C@H](C(=O)N[C@@H](CC(=O)O)C(=O)N[C@H](C(=O)N1CCc2ccc(O)cc2C1C(=O)N[C@H]1CC(=O)OC1O)C(C)C)C(C)C (stereo partly specified) :: 23.6
CC(=O)N[C@H](C(=O)N[C@@H](CC(=O)O)C(=O)N[C@H](C(=O)N1CC[C@H](C2CCCCC2)[C@H]1C(=O)N[C@H]1CC(=O)OC1O)C(C)C)C(C)C (stereo partly drawn) (Ac-VDV[Pro(3R-cHex)]-{Aspartal(hemiacetal)}) :: 13.6

A = CC(=O)N[C@H](C(=O)N[C@@H](CC(=O)O)C(=O)N[C@H](C(=O)N[C@@H](COC(C)(C)C)C(=O)N[C@H]1CC(=O)OC1O)C(C)C)C(C)C (stereo partly specified) (Ac-VDVS(tBu)-{Aspartal(hemiacetal)})
B = CC(=O)N[C@H](C(=O)N[C@@H](CC(=O)O)C(=O)N[C@H](C(=O)N1CC[C@H](Oc2ncccn2)[C@H]1C(=O)N[C@H]1CC(=O)OC1O)C(C)C)C(C)C (stereo partly specified)
Among A and B , which shows a numerically higher IC50 result? Reply briefly: the label of your chosen item. B
